- EXPERIMENTAL_TARGET: human V1a receptor (Homo sapiens, UniProt P37288)
- Construct: expressed in transfected cells; host or cells: HEK293 cells, transiently transfected; cell membranes
- Sequence (P37288 whole entry): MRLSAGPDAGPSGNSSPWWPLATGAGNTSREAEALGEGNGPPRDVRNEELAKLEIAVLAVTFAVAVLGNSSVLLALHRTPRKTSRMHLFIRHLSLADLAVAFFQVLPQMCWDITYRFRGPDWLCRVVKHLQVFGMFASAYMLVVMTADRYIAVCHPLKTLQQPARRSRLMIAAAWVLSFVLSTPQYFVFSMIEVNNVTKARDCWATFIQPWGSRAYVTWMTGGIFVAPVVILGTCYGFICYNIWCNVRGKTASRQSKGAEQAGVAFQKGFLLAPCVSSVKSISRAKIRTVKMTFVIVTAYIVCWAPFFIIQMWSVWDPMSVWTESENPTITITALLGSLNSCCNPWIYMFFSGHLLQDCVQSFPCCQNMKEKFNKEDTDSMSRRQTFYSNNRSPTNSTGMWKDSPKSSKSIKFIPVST
- EXPERIMENTAL_PROTOCOL: human V1a receptor binding (3H-Vasopressin SPA, membranes of transfected HEK293 cells)
- DETAILS: HEK293 cell membranes, Ki by Cheng-Prussoff equation, read-out: pKi hV1a (converted)
ATTRIBUTE_MEASURED: Ki (nM)
The figure you give is taken to be in nM; do not add the unit.

The following molecules have reported results that may help.
[[record]]
molecule = "Clc1ccc2c(c1)COCc1nnc([C@H]3CC[C@H](c4onc5c4CCCC5)CC3)n1-2 [Example 5]"
observed_value = 15.5

[[record]]
molecule = "Fc1cccnc1[C@H]1CC[C@H](c2nnc3n2-c2ccc(Cl)cc2COC3)CC1 [Example 1]"
observed_value = 2.4

[[record]]
molecule = "CC(C)C[C@H]1CC[C@H](c2nnc3n2-c2ccc(Cl)cc2COC3)CC1 [Example 9]"
observed_value = 25.7

[[record]]
molecule = "Clc1ccc2c(c1)COCc1nnc([C@H]3CC[C@H](c4noc5ccccc54)CC3)n1-2 [Example 2]"
observed_value = 7.41


INPUT: State, in one line, measured Ki of Cc1nc([C@H]2CC[C@H](c3nnc4n3-c3ccc(Cl)cc3COC4)CC2)no1 [Example 7]
OUTPUT: 32.4

INPUT: State, in one line, measured Ki of FC(F)(C1CCCC1)[C@H]1CC[C@H](c2nnc3n2-c2ccc(Cl)cc2COC3)CC1 [Example 8]
OUTPUT: 2.4

INPUT: State, in one line, measured Ki of Clc1ccc2c(c1)COCc1nnc([C@H]3CC[C@H](c4n[nH]c5c4CCCC5)CC3)n1-2 [Example 6]
OUTPUT: 4.9

INPUT: State, in one line, measured Ki of Clc1ccc2c(c1)COCc1nnc([C@H]3CC[C@H](c4nsc5ccccc54)CC3)n1-2 [Example 3]
OUTPUT: 0.288

INPUT: State, in one line, measured Ki of Cc1cc([C@H]2CC[C@H](c3nnc4n3-c3ccc(Cl)cc3COC4)CC2)no1 [Example 4]
OUTPUT: 3.98
